Target: HTRA1 (cat) (human, UniProt Q92743 158-373)
Sequence (Q92743 158-373, form in doubt): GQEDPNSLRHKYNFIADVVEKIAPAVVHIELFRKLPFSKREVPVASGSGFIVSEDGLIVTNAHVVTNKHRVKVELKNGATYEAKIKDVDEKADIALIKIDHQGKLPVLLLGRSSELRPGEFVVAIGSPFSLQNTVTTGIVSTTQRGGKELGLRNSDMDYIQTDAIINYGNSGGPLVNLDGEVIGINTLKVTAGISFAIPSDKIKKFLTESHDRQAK
Assay: cell-based or functional assay
# note: exactly 50 nM is not below, so it is NOT MET; use MET for IC50 (nM) for HTRA1 (cat), decomposition rate of substrate peptide H2-Opt strictly under it

Some solved cases for reference:
binder	group.label
peptide H228 (designed binder) DPQFGLFSKYRTPNCGHYNGWACQAFFEPVCGSDMSTYANECTLCMKIREGGHNIKIIRNGPCGG	NOT MET
peptide M7 (designed binder) DPQFGLFSKYRTPNCSDHAGMACVAFYEPVCGSDMSTYANECTLCMKIREGGHNIKIIRNGPCGG	MET
peptide H223 (designed binder) DPQFGLFSKYRTPNCTMDMGMACWAFYEPVCGSDMSTYANECTLCMKIREGGHNIKIIRNGPCGG	MET
peptide derivative H322AT (designed binder) DPQFGLFSKYRTPNCSQHEGMACYALYEPVCGSDMSTYANECTLCMKIREGGHNIKIIRNGPCGG	MET

Here's an entry: peptide H218 (designed binder) DPQFGLFSKYRTPNCLKSEGMACYAYYEPVCGSDMSTYANECTLCMKIREGGHNIKIIRNGPCGG . Is its IC50 (nM) for HTRA1 (cat), decomposition rate of substrate peptide H2-Opt below 50 nM?
NOT MET
